measurement-parameters: pH 7.4
endpoint-label: pH 7 solubility

Cc1cc(CP(=O)(O)O)cc(OP(=O)(O)O)c1C(C)(C)CC(=O)N(c1nn(CC(F)(F)F)c2c(-c3ccc(C#CC(C)(C)S(C)(=O)=O)nc3[C@H](Cc3cc(F)cc(F)c3)NC(=O)Cn3nc(C(F)(F)F)c4c3C(F)(F)[C@@H]3C[C@H]43)ccc(Cl)c12)S(C)(=O)=O 1/100 μM

Qu. Entry under review: `CN(C(=O)N(c1nn(CC(F)(F)F)c2c(-c3ccc(C#CC(C)(C)S(C)(=O)=O)nc3[C@H](Cc3cc(F)cc(F)c3)NC(=O)Cn3nc(C(F)(F)F)c4c3C(F)(F)[C@@H]3C[C@H]43)ccc(Cl)c12)S(C)(=O)=O)c1ncccc1COP(=O)(O)O` . Reported pH 7 solubility?
Ans. 2/78 μM

Qu. For `CC(C)(Cc1ccccc1OP(=O)(O)O)C(=O)N(c1nn(CC(F)(F)F)c2c(-c3ccc(C#CC(C)(C)S(C)(=O)=O)nc3[C@H](Cc3cc(F)cc(F)c3)NC(=O)Cn3nc(C(F)(F)F)c4c3C(F)(F)[C@@H]3C[C@H]43)ccc(Cl)c12)S(C)(=O)=O` , what is its reported pH 7 solubility?
Ans. 1/66 μM

Qu. May I ask what pH 7 solubility has been recorded for `Cc1cc(P(=O)(O)O)cc(OP(=O)(O)O)c1C(C)(C)CC(=O)N(c1nn(CC(F)(F)F)c2c(-c3ccc(C#CC(C)(C)S(C)(=O)=O)nc3[C@H](Cc3cc(F)cc(F)c3)NC(=O)Cn3nc(C(F)(F)F)c4c3C(F)(F)[C@@H]3C[C@H]43)ccc(Cl)c12)S(C)(=O)=O` ?
Ans. 1/100 μM

Hello, the source for this data is patent US11787825B2, in case you need it.
